- target of assay: Retinoic acid receptor alpha (Homo sapiens) (UniProt P10276)
- Sequence (P10276 whole entry, looked up): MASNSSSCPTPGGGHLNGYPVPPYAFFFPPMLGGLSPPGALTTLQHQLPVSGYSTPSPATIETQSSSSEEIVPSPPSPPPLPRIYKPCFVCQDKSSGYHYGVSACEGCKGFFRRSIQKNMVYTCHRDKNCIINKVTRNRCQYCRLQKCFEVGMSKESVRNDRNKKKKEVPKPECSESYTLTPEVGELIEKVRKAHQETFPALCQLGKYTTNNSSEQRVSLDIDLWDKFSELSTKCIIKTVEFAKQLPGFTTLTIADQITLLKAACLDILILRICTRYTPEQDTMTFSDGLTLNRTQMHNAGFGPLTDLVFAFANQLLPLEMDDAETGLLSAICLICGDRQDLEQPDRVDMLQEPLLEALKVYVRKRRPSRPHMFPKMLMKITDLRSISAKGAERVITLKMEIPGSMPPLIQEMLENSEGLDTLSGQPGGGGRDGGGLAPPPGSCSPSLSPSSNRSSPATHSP
- test summary: ATG_DR5_RAR_CIS: Attagene CIS-FACTORIAL HepG2 Assay for human Retinoic Acid Receptor Alpha (RARE), DR5 submotif (AID 2282934)
- stated conditions: HepG2 Attagene cis-factorial RARE DR5 reporter, mRNA; actives raise or lower the signal
Active and inactive are the calls of the source. Rule for the calls: active = hit-call score of the fitted dose curve at least 0.9, where 1 is the maximum; inactive = score below 0.9.
Outcome codes: True = active, False = inactive

[
  {
    "compound": "Cn1cnc2c1c(=O)[nH]c(=O)n2C",
    "target of assay": "Retinoic acid receptor alpha (Homo sapiens) (UniProt P10276)",
    "class label": "False"
  },
  {
    "compound": "O=NO",
    "target of assay": "Retinoic acid receptor alpha (Homo sapiens) (UniProt P10276)",
    "class label": "False"
  },
  {
    "compound": "CCCCCCC(C=O)=Cc1ccccc1",
    "target of assay": "Retinoic acid receptor alpha (Homo sapiens) (UniProt P10276)",
    "class label": "False"
  },
  {
    "compound": "O=C1OC(c2ccc(O)cc2)(c2ccc(O)cc2)c2ccccc21",
    "target of assay": "Retinoic acid receptor alpha (Homo sapiens) (UniProt P10276)",
    "class label": "True"
  },
  {
    "compound": "CCCCCCCCCCCCCCCCO",
    "target of assay": "Retinoic acid receptor alpha (Homo sapiens) (UniProt P10276)",
    "class label": "True"
  },
  {
    "compound": "CCCC(=O)O",
    "target of assay": "Retinoic acid receptor alpha (Homo sapiens) (UniProt P10276)",
    "class label": "False"
  },
  {
    "compound": "CC(=O)OC1CC(C)OC(C)O1 (stereo not drawn)",
    "target of assay": "Retinoic acid receptor alpha (Homo sapiens) (UniProt P10276)",
    "class label": "False"
  },
  {
    "compound": "O=Cc1ccccc1C=O",
    "target of assay": "Retinoic acid receptor alpha (Homo sapiens) (UniProt P10276)",
    "class label": "False"
  }
]

* * *

- Read-out: Thyroid Hormone Responsive (THRSP), THRSP (gene 7069)
- test summary: LTEA_HepaRG_THRSP: Life Technologies and Expression Analysis (LTEA) Assay for Thyroid Hormone Responsive (THRSP) using HepaRG (AID 2283536)
- stated conditions: mRNA level, 48 h; actives raise or lower the signal
Calls of active or inactive are those of the source. The calls were made as follows: active = hit-call score of the fitted dose curve at least 0.9, where 1 is the maximum; inactive = score below 0.9.
Outcome codes: active, inactive

[
  {
    "molecule": "O=C(O)c1[nH]n(-c2ccc(S(=O)(=O)O)cc2)c(=O)c1N=Nc1ccc(S(=O)(=O)O)cc1",
    "class label": "inactive"
  },
  {
    "molecule": "CC(C)COC(=O)CCCCC(=O)OCC(C)C",
    "class label": "inactive"
  },
  {
    "molecule": "CCCCCCCCCC[N+](C)(C)[O-]",
    "class label": "inactive"
  },
  {
    "molecule": "CCCCC(CC)COP(=O)(OCC(CC)CCCC)OCC(CC)CCCC (configuration not stated)",
    "class label": "inactive"
  },
  {
    "molecule": "O=C1CCCCC1",
    "class label": "inactive"
  },
  {
    "molecule": "Cc1cc(SC2=C(O)C[C@@](CCc3ccc(N)cc3)(C(C)C)OC2=O)c(C(C)(C)C)cc1CO",
    "class label": "inactive"
  },
  {
    "molecule": "N[C@@H](Cc1c[nH]c2ccccc12)C(=O)O",
    "class label": "inactive"
  },
  {
    "molecule": "O=C(O)CC(O)(CC(=O)O)C(=O)O",
    "class label": "inactive"
  },
  {
    "molecule": "Nc1nc(=S)c2[nH]cnc2[nH]1",
    "class label": "active"
  },
  {
    "molecule": "COC(=O)[C@H]1[C@H]2C[C@@H]3c4[nH]c5cc(OC)ccc5c4CCN3C[C@H]2C[C@@H](OC(=O)c2cc(OC)c(OC)c(OC)c2)[C@@H]1OC",
    "class label": "active"
  },
  {
    "molecule": "CC(=O)OC1CC(C)OC(C)O1 (configuration not stated)",
    "class label": "inactive"
  },
  {
    "molecule": "NC1CCCCC1",
    "class label": "inactive"
  }
]

* * *

- test summary: APR_HepG2_p53Act_72hr: Apredica 72-hour HepG2 Assay for p53 Activation (AID 2282923);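 note: average cellular p53 protein immunofluorescence intensity in HepG2 cells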
- stated conditions: high-content imaging, actives raise or lower the signal
Active and inactive are the calls of the source. The calls were made as follows: active = hit-call score of the fitted dose curve at least 0.9, where 1 is the maximum; inactive = score below 0.9.

[
  {
    "compound": "CCCC[C@H]1CN(CC2CCOCC2)C(=O)OC12CCN(C1(C)CCN(C(=O)c3c(C)ncnc3C)CC1)CC2",
    "AC50": "inactive"
  },
  {
    "compound": "c1ccc2occc2c1",
    "AC50": "inactive"
  },
  {
    "compound": "CN(C)C(=O)NC1(c2ccccc2)CCN(CC[C@@]2(c3ccc(F)c(F)c3)CN(C(=O)c3ccccc3)CCO2)CC1",
    "AC50": "97.7 µM (active)"
  },
  {
    "compound": "CS(=O)(=O)c1ccc([C@@H](C[C@H]2CCC(=O)C2)C(=O)Nc2cnccn2)cc1Cl",
    "AC50": "inactive"
  },
  {
    "compound": "CCCCC(CC)COC(=O)CCCCCCCC(=O)OCC(CC)CCCC (configuration not stated)",
    "AC50": "inactive"
  },
  {
    "compound": "Cc1c(C)c2c(c(C)c1O)CCC(C)(COc1ccc(CC3SC(=O)NC3=O)cc1)O2 (configuration not stated)",
    "AC50": "65.2 µM (active)"
  },
  {
    "compound": "CCC(C)N(C)C(=O)c1cc2ccccc2c(-c2ccccc2Cl)n1 (configuration not stated)",
    "AC50": "inactive"
  },
  {
    "compound": "CCc1cc(C2=C(C(=O)O)N(c3ccccc3C(F)(F)F)S(=O)(=O)c3ccccc32)cc2c1OCO2",
    "AC50": "inactive"
  },
  {
    "compound": "O=C(O)CC(O)(CC(=O)O)C(=O)O",
    "AC50": "inactive"
  },
  {
    "compound": "CCCCCCCC(=O)OC",
    "AC50": "inactive"
  },
  {
    "compound": "O=C1c2c(O)cccc2Cc2cccc(O)c21",
    "AC50": "inactive"
  },
  {
    "compound": "CN(C)C(=O)NC1(c2ccccc2)CCN(CCC[C@]2(c3ccc(Cl)c(Cl)c3)CCCN(C(=O)c3ccccc3)C2)CC1",
    "AC50": "10.3 µM (active)"
  },
  {
    "compound": "C=CCc1ccc(OC)c(OC)c1",
    "AC50": "inactive"
  },
  {
    "compound": "CC1=C(C)S(=O)(=O)CCS1(=O)=O",
    "AC50": "73.8 µM (active)"
  },
  {
    "compound": "COC(=O)[C@H]1[C@H]2C[C@@H]3c4[nH]c5cc(OC)ccc5c4CCN3C[C@H]2C[C@@H](OC(=O)c2cc(OC)c(OC)c(OC)c2)[C@@H]1OC",
    "AC50": "24.6 µM (active)"
  },
  {
    "compound": "O=[Si]=O",
    "AC50": "inactive"
  },
  {
    "compound": "CO[C@@H]1COCC[C@@H]1N[C@@H]1CC[C@@](C(=O)N2CCc3ncc(C(F)(F)F)cc3C2)(C(C)C)C1",
    "AC50": "inactive"
  },
  {
    "compound": "COc1ccc(OC(F)(F)F)cc1CN[C@H]1CCCN[C@H]1c1ccccc1",
    "AC50": "24.3 µM (active)"
  },
  {
    "compound": "Cc1cc(SC2=C(O)C[C@@](CCc3ccc(N)cc3)(C(C)C)OC2=O)c(C(C)(C)C)cc1CO",
    "AC50": "inactive"
  },
  {
    "compound": "OCC(O)CO",
    "AC50": "inactive"
  },
  {
    "compound": "CC1(C)C(=O)NC(=O)N1CO",
    "AC50": "inactive"
  },
  {
    "compound": "NC(=Nc1ccccc1)Nc1ccccc1",
    "AC50": "23.4 µM (active)"
  }
]

* * *

- test summary: CCTE_Deisenroth_AIME_384WELL_CTox_Inactive: Cytotoxicity Assessment (CTOX) in CCTE's 384-well Estrogen Receptor Transactivation Assay without AIME metabolic competence (metabolism negative), Deisenroth Lab (AID 2284039);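 note: cell viability via live-cell protease substrate cleaved to fluorescent probe; cells exposed 24 h to medium preincubated 2 h with alginate-water beads without S9; loss of fluorescence signal means loss of viability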
Records with an inconclusive call do not appear. Activity calls are given as the source filed them. Rule for the calls: active = hit-call score of the fitted dose curve at least 0.9, where 1 is the maximum; inconclusive = response in the unintended direction; inactive = score below 0.9.
Outcome codes: active, inactive

[
  {
    "compound": "CC(=O)O",
    "class label": "inactive"
  },
  {
    "compound": "CC(C)NCC(O)c1ccc(O)c(O)c1 (centres undefined)",
    "class label": "active"
  },
  {
    "compound": "CCOCCOCCO",
    "class label": "inactive"
  },
  {
    "compound": "Cc1occc(=O)c1O",
    "class label": "inactive"
  },
  {
    "compound": "Cc1ccc(C(C)(C)C)c(O)c1",
    "class label": "inactive"
  },
  {
    "compound": "CCCCCCC(C=O)=Cc1ccccc1",
    "class label": "inactive"
  },
  {
    "compound": "CCCCC(CC)CO (centres undefined)",
    "class label": "inactive"
  },
  {
    "compound": "O=[Si]=O",
    "class label": "inactive"
  },
  {
    "compound": "CC(C)c1cccc(C(C)C)c1",
    "class label": "inactive"
  },
  {
    "compound": "CN(C)CCCN(C)CCCN(C)C",
    "class label": "inactive"
  },
  {
    "compound": "c1ccc2occc2c1",
    "class label": "inactive"
  },
  {
    "compound": "C/C=C/C=C/C(=O)O",
    "class label": "inactive"
  },
  {
    "compound": "Oc1ccccc1O",
    "class label": "active"
  },
  {
    "compound": "O=C(O)c1[nH]n(-c2ccc(S(=O)(=O)O)cc2)c(=O)c1N=Nc1ccc(S(=O)(=O)O)cc1",
    "class label": "active"
  }
]

Where do these numbers come from? They come from PubChem BioAssay (EPA / NIEHS).
